Here the recorded Relative Potentiation for GABAA2 is given for each entry.
# tgt: human α2β3γ2 GABAA receptor (Homo sapiens, UniProt P18507+P47869)
# Construct: expressed in transfected cells; host or cells: Xenopus laevis oocytes injected with capped cRNA (α:β:γ 1:1:1)
# Sequence (P47869 29-451): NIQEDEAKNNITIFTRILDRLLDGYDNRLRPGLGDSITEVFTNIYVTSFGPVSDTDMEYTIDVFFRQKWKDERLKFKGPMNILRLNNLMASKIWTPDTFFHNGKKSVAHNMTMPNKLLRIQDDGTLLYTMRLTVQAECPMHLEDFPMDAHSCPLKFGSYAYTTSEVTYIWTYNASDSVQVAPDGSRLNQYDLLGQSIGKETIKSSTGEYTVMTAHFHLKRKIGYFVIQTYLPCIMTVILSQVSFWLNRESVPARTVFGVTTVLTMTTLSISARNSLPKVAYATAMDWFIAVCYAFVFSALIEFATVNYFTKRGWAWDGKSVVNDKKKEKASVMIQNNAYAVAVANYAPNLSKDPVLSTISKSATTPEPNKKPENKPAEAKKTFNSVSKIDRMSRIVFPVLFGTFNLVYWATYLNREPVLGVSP
# Sequence (P18507 40-475): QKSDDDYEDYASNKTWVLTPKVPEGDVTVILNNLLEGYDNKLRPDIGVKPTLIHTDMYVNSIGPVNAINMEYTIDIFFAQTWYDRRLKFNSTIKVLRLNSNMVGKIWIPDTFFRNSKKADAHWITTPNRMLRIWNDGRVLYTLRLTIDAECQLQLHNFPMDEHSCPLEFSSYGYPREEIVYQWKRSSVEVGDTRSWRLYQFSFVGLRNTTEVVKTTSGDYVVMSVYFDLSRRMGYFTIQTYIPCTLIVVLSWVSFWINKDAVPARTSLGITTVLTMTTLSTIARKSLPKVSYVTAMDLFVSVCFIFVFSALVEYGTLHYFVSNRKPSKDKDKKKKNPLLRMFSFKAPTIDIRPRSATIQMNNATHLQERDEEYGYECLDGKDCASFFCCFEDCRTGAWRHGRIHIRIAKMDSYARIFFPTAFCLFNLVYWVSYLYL
# Sequence (P28472 26-473 partner): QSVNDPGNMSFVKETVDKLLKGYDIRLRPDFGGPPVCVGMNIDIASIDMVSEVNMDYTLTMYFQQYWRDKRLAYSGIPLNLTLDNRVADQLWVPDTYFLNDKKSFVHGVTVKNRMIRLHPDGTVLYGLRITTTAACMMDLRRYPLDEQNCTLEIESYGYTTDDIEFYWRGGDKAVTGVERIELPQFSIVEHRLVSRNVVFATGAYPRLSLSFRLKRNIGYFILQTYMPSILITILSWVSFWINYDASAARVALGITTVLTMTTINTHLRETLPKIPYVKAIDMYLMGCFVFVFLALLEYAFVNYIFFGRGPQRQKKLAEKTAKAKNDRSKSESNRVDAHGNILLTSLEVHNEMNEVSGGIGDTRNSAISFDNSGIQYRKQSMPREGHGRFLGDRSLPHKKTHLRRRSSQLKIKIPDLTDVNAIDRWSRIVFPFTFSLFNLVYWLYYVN
# experiment_summary: Two-electrode voltage-clamp in Xenopus oocytes, potentiation of GABA EC10 current, GABAA2
# Format: cell-based
# condition_label: percentage potentiation of GABA EC10 current divided by that of diazepam control
// keep it numeric: no unit symbol after the value

Known Relative Potentiation for GABAA2 results, listed for orientation:
- smiles_data: "CCCNC(=O)c1nnc2c(-c3ccc(C)cc3)cccc2c1N"
  measured_parameter: "Relative Potentiation for GABAA2"
  endpoint_value: 0.11
- smiles_data: "CCCNC(=O)c1nnc2c(-c3ccc(C)nc3F)cccc2c1N"
  measured_parameter: "Relative Potentiation for GABAA2"
  endpoint_value: 0.27
- smiles_data: "CCCNC(=O)c1nnc2c(-c3cc(C)nn3C)cccc2c1N"
  measured_parameter: "Relative Potentiation for GABAA2"
  endpoint_value: 0.18
- smiles_data: "COc1cccc(F)c1-c1cccc2c(N)c(C(=O)NC3CCC3)nnc12"
  measured_parameter: "Relative Potentiation for GABAA2"
  endpoint_value: 0.12
- smiles_data: "CCCNC(=O)c1nnc2c(-c3ccccc3)c(Cl)ccc2c1N"
  measured_parameter: "Relative Potentiation for GABAA2"
  endpoint_value: 0.16

Given the entry "CCCNC(=O)c1nnc2c(-c3ccc(OC)cc3F)cccc2c1N" , report its measured Relative Potentiation for GABAA2.
0.12

Further, for "COc1ncccc1-c1cccc2c(N)c(C(=O)NC3CC3)nnc12" ?
0.247

Entry "CCCNC(=O)c1nnc2c(-c3cccc(S(C)(=O)=O)c3)cccc2c1N" please
0.26

----------
# Relative Potentiation for GABAA1 listing for each entry below
# tgt: human α1β2γ2 GABAA receptor (Homo sapiens, UniProt P14867+P18507)
# Construct: expressed in transfected cells; host or cells: Xenopus laevis oocytes injected with capped cRNA
# Sequence (P14867 28-456): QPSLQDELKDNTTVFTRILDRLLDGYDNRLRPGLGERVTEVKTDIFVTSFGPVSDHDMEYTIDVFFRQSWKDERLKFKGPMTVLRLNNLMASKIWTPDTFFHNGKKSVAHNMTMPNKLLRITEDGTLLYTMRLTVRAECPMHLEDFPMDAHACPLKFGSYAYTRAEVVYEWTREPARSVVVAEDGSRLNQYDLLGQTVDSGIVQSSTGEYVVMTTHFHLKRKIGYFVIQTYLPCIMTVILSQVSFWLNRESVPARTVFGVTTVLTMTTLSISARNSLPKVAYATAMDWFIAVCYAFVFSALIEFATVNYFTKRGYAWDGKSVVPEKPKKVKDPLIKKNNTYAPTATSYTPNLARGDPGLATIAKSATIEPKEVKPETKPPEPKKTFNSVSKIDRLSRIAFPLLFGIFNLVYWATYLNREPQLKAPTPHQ
# Sequence (P47870 25-512 partner limits assumed): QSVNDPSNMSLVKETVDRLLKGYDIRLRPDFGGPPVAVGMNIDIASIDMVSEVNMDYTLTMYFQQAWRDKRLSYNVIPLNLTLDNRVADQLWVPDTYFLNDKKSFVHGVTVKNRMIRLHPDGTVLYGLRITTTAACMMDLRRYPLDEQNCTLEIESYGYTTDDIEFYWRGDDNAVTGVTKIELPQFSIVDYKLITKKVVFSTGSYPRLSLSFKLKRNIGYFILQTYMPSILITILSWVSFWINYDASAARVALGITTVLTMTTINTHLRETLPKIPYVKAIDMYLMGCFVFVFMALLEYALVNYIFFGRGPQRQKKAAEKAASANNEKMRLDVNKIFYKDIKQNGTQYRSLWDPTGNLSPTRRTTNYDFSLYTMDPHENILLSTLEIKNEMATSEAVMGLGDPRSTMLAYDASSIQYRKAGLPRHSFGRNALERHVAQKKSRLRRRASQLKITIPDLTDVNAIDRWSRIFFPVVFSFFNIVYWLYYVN
# Sequence (P18507 40-475): as the sequence (P18507 40-475) above
# experiment_summary: Two-electrode voltage-clamp in Xenopus oocytes, potentiation of GABA EC10 current, GABAA1
# Assay type: cell-based
# condition_label: percentage potentiation of GABA EC10 current divided by that of diazepam control
Reply briefly: the number, and no unit.

- compound: "CCCNC(=O)c1nnc2c(-c3ccccc3C(F)(F)F)cccc2c1N"
  measured_parameter: "Relative Potentiation for GABAA1"
  endpoint_value: 0.12
- compound: "CCCNC(=O)c1nnc2c(-c3cc(F)c(OC)cc3F)cccc2c1N"
  measured_parameter: "Relative Potentiation for GABAA1"
  endpoint_value: 0.016
- compound: "CCCNC(=O)c1nnc2c(-c3ccc(N(C)C)cc3)cccc2c1N"
  measured_parameter: "Relative Potentiation for GABAA1"
  endpoint_value: 0.07
- compound: "CCCNC(=O)c1nnc2c(-c3cnc(OC)c(Cl)c3)cccc2c1N"
  measured_parameter: "Relative Potentiation for GABAA1"
  endpoint_value: 0.086
- compound: "CCCNC(=O)c1nnc2c(-c3ccsc3)cccc2c1N"
  measured_parameter: "Relative Potentiation for GABAA1"
  endpoint_value: "−0.26"
- compound: "CCCNC(=O)c1nnc2c(-c3cccc(OC)c3F)cccc2c1N"
  measured_parameter: "Relative Potentiation for GABAA1"
  endpoint_value: 0.045

Using the record for "CCCNC(=O)c1nnc2c(-c3ccc(OC)cc3F)cccc2c1N" , report its Relative Potentiation for GABAA1.
0

Now give it for "Cc1ccc(-c2cccc3c(N)c(C(=O)NC4CC4)nnc23)cn1" too.
−0.166

Another compound: "CCCNC(=O)c1nnc2c(-c3ccc(OC)cc3OC)c(Cl)ccc2c1N"
0.87

----------
# tgt: human α1β2γ2 GABAA receptor (Homo sapiens, UniProt P14867+P18507)
# Construct: expressed in transfected cells; host or cells: Xenopus laevis oocytes injected with capped cRNA
# experiment_summary: Two-electrode voltage-clamp in Xenopus oocytes, potentiation of GABA EC10 current, GABAA1
# Assay type: cell-based
# condition_label: percentage potentiation of GABA EC10 current divided by that of diazepam control
measured_parameter: Relative Potentiation for GABAA1
Form field (numeric): enter value without unit.

- smiles_data: "CCCNC(=O)c1nnc2c(-c3ccc(F)cc3OC)c(F)ccc2c1N"
  tgt: "human α1β2γ2 GABAA receptor (Homo sapiens, UniProt P14867+P18507)"
  endpoint_value: "−0.028"

Next molecule, please.
Look at this molecule and give its reported Relative Potentiation for GABAA1. "CCCNC(=O)c1nnc2c(-c3ccccc3)c(F)ccc2c1N"
−0.093

----------
# tgt: human α1β2γ2 GABAA receptor (Homo sapiens, UniProt P14867+P18507)
# Construct: expressed in transfected cells; host or cells: Xenopus laevis oocytes injected with capped cRNA
# experiment_summary: Two-electrode voltage-clamp in Xenopus oocytes, potentiation of GABA EC10 current, GABAA1
# Type: cell-based
# condition_label: percentage potentiation of GABA EC10 current divided by that of diazepam control
measured_parameter: Relative Potentiation for GABAA1
Please give the numeric answer without any surrounding text.

Use the examples below as a reference point.
- smiles_data: "CCCNC(=O)c1nnc2c(-c3cccc(OC)c3F)c(F)ccc2c1N"
  Relative Potentiation for GABAA1: 0.05
- smiles_data: "CCCNC(=O)c1nnc2c(-c3ccc(OC)c(F)c3)cccc2c1N"
  Relative Potentiation for GABAA1: 0.03
- smiles_data: "CCCNC(=O)c1nnc2c(-c3cc(C(F)(F)F)cc(C(F)(F)F)c3)cccc2c1N"
  Relative Potentiation for GABAA1: 0.44
- smiles_data: "CCCNC(=O)c1nnc2c(-c3cc(F)ccc3C)cccc2c1N"
  Relative Potentiation for GABAA1: 0.02
- smiles_data: "CCCNC(=O)c1nnc2c(-c3cc(OC)cc(OC)c3)c(F)ccc2c1N"
  Relative Potentiation for GABAA1: 0.38

Now for another entry.
For "CCCNC(=O)c1nnc2c(-c3ccc(OC)c(OC)c3)cccc2c1N" , what is its reported Relative Potentiation for GABAA1?
0.33

----------
# tgt: human α2β3γ2 GABAA receptor (Homo sapiens, UniProt P18507+P47869)
# Construct: expressed in transfected cells; host or cells: Xenopus laevis oocytes injected with capped cRNA (α:β:γ 1:1:1)
# experiment_summary: Two-electrode voltage-clamp in Xenopus oocytes, potentiation of GABA EC10 current, GABAA2
# Type: cell-based
# condition_label: percentage potentiation of GABA EC10 current divided by that of diazepam control
# Procedure: GABAA receptors were heterologously expressed in Xenopus oocytes by injecting cRNA corresponding to human α1, α2, α3, α5, β2, β3 and γ2 subunits of the GABAA receptor genes. […] Modulatory effect of test compound was determined and compared across subtypes. […] All measurements were done in a medium containing ND-96 (96 NaCl, 2 KCl, 1.8 CaCl2.2H2O, 1 MgCl2.6H2O, 5 HEPES, in mM, pH 7.5). […] The concentration of GABA corresponded to the EC10 value calculated for each oocyte. […]
measured_parameter: Relative Potentiation for GABAA2

Look over these answered cases.
- smiles_data: "CCCNC(=O)c1nnc2c(-c3cccc(Cl)c3)cccc2c1N"
  endpoint_value: 0.53
- smiles_data: "CCCNC(=O)c1nnc2c(-c3cc(C)c(OC)c(C)c3)cccc2c1N"
  endpoint_value: 0.32
- smiles_data: "CCCNC(=O)c1nnc2c(-c3ccc(OC)cc3C(F)(F)F)cccc2c1N"
  endpoint_value: 0.16

Next, consider the following molecule.
What measured Relative Potentiation for GABAA2 is associated with "CCCNC(=O)c1nnc2c(-c3cccc(OC)c3)cccc2c1N" on human α2β3γ2 GABAA receptor (Homo sapiens, UniProt P18507+P47869)?
0.22

----------
# tgt: human α1β2γ2 GABAA receptor (Homo sapiens, UniProt P14867+P18507)
# Construct: expressed in transfected cells; host or cells: Xenopus laevis oocytes injected with capped cRNA
# experiment_summary: Two-electrode voltage-clamp in Xenopus oocytes, potentiation of GABA EC10 current, GABAA1
# Format: cell-based
# condition_label: percentage potentiation of GABA EC10 current divided by that of diazepam control
Exam item: assign Fulfilled to entries whose Relative Potentiation for GABAA1 is below 0.1 and Not fulfilled to entries at or above 0.1. Note that a value of exactly 0.1 receives Not fulfilled.

- molecule: "CCNC(=O)c1nnc2c(-c3ccc(OC)cc3OC)cccc2c1N"
  class_name: "Fulfilled"

# TODO verify Relative Potentiation for GABAA1 < 0.1 strictly for this molecule: "CCCNC(=O)c1nnc2c(-c3ccccc3)c(OC)ccc2c1N"
Not fulfilled

And the next one, "CCCNC(=O)c1nnc2c(-c3cnc4ccccc4c3)cccc2c1N" ?
Fulfilled

Same again, this time with "CCCNC(=O)c1nnc2c(-c3ccc(F)c(F)c3)cccc2c1N"
Fulfilled

// next record "CCCNC(=O)c1nnc2c(-c3cccnc3F)cccc2c1N"
Fulfilled

Do the same for "CCCNC(=O)c1nnc2c(-c3cc(OC)ccc3F)cccc2c1N" please
Not fulfilled

Moving on to "CCCNC(=O)c1nnc2c(-c3cc(Cl)ccc3Cl)cccc2c1N"
Not fulfilled

Then what about the molecule "CCCCNC(=O)c1nnc2c(-c3cnc(OC)nc3OC)cccc2c1N" ?
Not fulfilled

Record: "CCCNC(=O)c1nnc2c(-c3cc(F)ccc3OC)cccc2c1N"
Fulfilled

Repeat with "CCCNC(=O)c1nnc2c(-c3cc(F)ccc3F)c(F)ccc2c1N"
Fulfilled
